These measurements were taken from ChEMBL document CHEMBL3112425.

Target: Furin (Homo sapiens)
Sequence (P09958 whole entry): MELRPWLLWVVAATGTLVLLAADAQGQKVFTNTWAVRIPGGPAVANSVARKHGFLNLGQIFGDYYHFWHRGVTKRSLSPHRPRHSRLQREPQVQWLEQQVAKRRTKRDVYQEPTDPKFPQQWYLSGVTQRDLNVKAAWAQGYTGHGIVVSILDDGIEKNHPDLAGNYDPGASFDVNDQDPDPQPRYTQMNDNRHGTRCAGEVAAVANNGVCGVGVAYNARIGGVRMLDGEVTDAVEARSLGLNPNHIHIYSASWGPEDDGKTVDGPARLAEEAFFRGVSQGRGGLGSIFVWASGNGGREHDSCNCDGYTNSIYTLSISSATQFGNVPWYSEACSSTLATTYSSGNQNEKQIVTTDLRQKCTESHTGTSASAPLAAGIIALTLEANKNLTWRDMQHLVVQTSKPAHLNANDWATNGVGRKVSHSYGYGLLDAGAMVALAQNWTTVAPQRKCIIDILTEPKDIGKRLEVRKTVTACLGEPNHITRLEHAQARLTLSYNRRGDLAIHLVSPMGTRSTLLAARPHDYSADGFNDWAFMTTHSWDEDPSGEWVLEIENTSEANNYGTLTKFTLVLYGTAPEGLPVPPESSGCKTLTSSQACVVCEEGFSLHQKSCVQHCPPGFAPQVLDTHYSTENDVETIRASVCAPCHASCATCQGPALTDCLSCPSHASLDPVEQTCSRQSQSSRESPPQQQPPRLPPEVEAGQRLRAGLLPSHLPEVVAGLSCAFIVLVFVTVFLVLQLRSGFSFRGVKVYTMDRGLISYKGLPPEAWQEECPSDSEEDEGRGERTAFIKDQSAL
Experiment: Inhibition of human recombinant furin expressed in drosophila schneider 2 cells using pyroGlu-Arg-Thr-Lys-Arg-AMC as substrate after 1 hr
outcome_measure: Ki (nM)
Number only, in nM; omit the unit.

Q: Output Ki of `CCCC[C@H](NC(C)=O)C(=O)N[C@@H](CC(C)C)C(=O)N[C@@H](CC(C)C)C(=O)N[C@@H](CCCC)C(=O)N[C@@H](CCCNC(=N)N)C(=O)N[C@H](C(=O)N[C@@H](CCCCN)C(=O)N[C@@H](CCCNC(=N)N)C(N)=O)C(C)C`
Result: 680

Q: Please report the measured Ki for `CCCC[C@H](NC(C)=O)C(=O)N[C@@H](CCCC)C(=O)N[C@@H](CC(C)C)C(=O)N[C@@H](CC(C)C)C(=O)N[C@@H](CCCN=C(N)N)C(=O)N[C@H](C(=O)N[C@@H](CCCCN)C(=O)N[C@@H](CCCN=C(N)N)C(N)=O)C(C)C`
Result: 950

Q: Please look at this compound and report its Ki: `CC(=O)N[C@H](CC(C)C)C(=O)N[C@@H](CC(C)C)C(=O)N[C@@H](CC(C)C)C(=O)N[C@@H](CC(C)C)C(=O)N[C@@H](CCCN=C(N)N)C(=O)N[C@H](C(=O)N[C@@H](CCCCN)C(=O)N[C@@H](CCCN=C(N)N)C(N)=O)C(C)C`
Result: 760

Q: Please report Ki for the following compound: `CCCC[C@H](NC(C)=O)C(=O)N[C@@H](CCCC)C(=O)N[C@@H](CC(C)C)C(=O)N[C@@H](CCCC)C(=O)N[C@@H](CCCN=C(N)N)C(=O)N[C@H](C(=O)N[C@@H](CCCCN)C(=O)N[C@@H](CCCN=C(N)N)C(N)=O)C(C)C`
Result: 1070

Q: Read off the recorded Ki for `CC(=O)N[C@@H](CC(C)C)C(=O)N[C@@H](CC(C)C)C(=O)N[C@H](CC(C)C)C(=O)N[C@@H](CC(C)C)C(=O)N[C@@H](CCCNC(=N)N)C(=O)N[C@H](C(=O)N[C@@H](CCCCN)C(=O)N[C@@H](CCCNC(=N)N)C(N)=O)C(C)C`
Result: 980
